Source: patent US7863449B2

- test-target: M4 muscarinic receptor (Homo sapiens, UniProt P08173)
- Construct: expressed in transfected cells; host or cells: CHO (M4-CHO)
- Sequence (P08173 whole entry): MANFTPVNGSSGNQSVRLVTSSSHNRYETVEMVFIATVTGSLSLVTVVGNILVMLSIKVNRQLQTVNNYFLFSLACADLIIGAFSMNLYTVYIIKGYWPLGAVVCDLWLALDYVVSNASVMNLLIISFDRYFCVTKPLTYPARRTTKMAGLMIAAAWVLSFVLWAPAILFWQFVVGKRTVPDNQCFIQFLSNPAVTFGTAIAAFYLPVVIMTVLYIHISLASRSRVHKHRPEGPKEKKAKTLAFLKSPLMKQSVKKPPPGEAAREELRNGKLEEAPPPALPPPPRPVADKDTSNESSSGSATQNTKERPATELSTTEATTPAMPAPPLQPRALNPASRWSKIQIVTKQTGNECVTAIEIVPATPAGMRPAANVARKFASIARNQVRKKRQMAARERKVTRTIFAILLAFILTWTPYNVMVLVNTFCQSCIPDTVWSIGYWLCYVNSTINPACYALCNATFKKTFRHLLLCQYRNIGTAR
- protocol-text: Functional mobilization of intracellular calcium (FLIPR), M4-CHO cells
- Type: cell-based
- experimental-setup: 100% efficacy is the maximum response obtained using Carbachol as a control
Where a name gives a salt, the structure may show the parent alone.
observable: Emax

Some solved entries appear below for comparison.
[
  {
    "compound": "CCOC(=O)N1CCC(N2CCC3(CC2)CN(C(=O)C2CCC2)Cc2ccccc23)CC1",
    "result": "25 to 100%"
  },
  {
    "compound": "CCOC(=O)N1CCC(CN2CCC3(CC2)CN(C(=O)CC)Cc2ccccc23)CC1",
    "result": "25 to 100%"
  },
  {
    "compound": "CCOC(=O)N1C2CCC1CC(N1CCC3(CC1)CN(C(=O)Nc1ccc(F)cc1)Cc1ccccc13)C2 (stereo not shown)",
    "result": "25 to 100%"
  }
]

Ask: Endpoint output: Emax of CCOC(=O)N1CCC(N2CCC3(CC2)c2ccccc2C(=O)N3Cc2ccccc2)CC1 . Value?
Result: < 25%

Ask: Endpoint output: Emax of CCCOC(=O)N1C2CCC1CC(N1CCC3(CC1)CN(C(=O)N(C)C)Cc1ccccc13)C2 (stereo not shown) . Value?
Result: 25 to 100%

Ask: Endpoint output: Emax of CC(=O)N1Cc2ccccc2C2(CCN(Cc3ccc(F)cc3)CC2)C1 . Value?
Result: < 25%

Ask: Endpoint output: Emax of CCOC(=O)N1CCC(CN2CCC3(CC2)CN(C(=O)N(C)C)Cc2ccccc23)CC1 . Value?
Result: 25 to 100%

Ask: Endpoint output: Emax of CCOC(=O)N1CCC(C)(CN2CCC3(CC2)CN(C(C)=O)Cc2ccccc23)CC1 [compound 103, hydrochloride] . Value?
Result: 25 to 100%

Ask: Endpoint output: Emax of Cc1ccc2c(c1)C1(CCN(CC3CCOCC3)CC1)OC2=O . Value?
Result: < 25%

Ask: Endpoint output: Emax of CCOC(=O)N1CCC(N2CCC3(CC2)CN(S(=O)(=O)N(C)C)Cc2ccccc23)CC1 . Value?
Result: 25 to 100%

Ask: Endpoint output: Emax of CCOC(=O)N1C2CCC1CC(N1CCC3(CC1)CN(S(=O)(=O)c1ccc(C#N)cc1)Cc1ccccc13)C2 (stereo not shown) . Value?
Result: 25 to 100%

Ask: Endpoint output: Emax of CC(=O)N1Cc2ccccc2C2(CCN(CC3CCN(C(=O)OC4CCCC4)CC3)CC2)C1 . Value?
Result: < 25%

Ask: Endpoint output: Emax of CCOC(=O)N1C2CCC1CC(N1CCC3(CC1)CN(c1cccc(F)c1)Cc1ccccc13)C2 (stereo not shown) . Value?
Result: 25 to 100%

Ask: Endpoint output: Emax of CCOC(=O)N1CCC(CN2CCC3(CC2)CN(C(=O)C2CC2)Cc2ccccc23)CC1 . Value?
Result: 25 to 100%

Ask: Endpoint output: Emax of CCOC(=O)N1C2CCC1CC(N1CCC3(CC1)CN(S(=O)(=O)c1ccc(-c4ccccc4)cc1)Cc1ccccc13)C2 (stereo not shown) . Value?
Result: 25 to 100%

Ask: Endpoint output: Emax of CN(C)C(=O)N1Cc2ccccc2C2(CCN(C3CC4CCC(C3)N4C(=O)O[C@@H]3CCOC3)CC2)C1 (stereo partly shown) . Value?
Result: 25 to 100%

Ask: Endpoint output: Emax of CCOC(=O)N1CC(CN2CCC3(CC2)CN(C(C)=O)Cc2ccccc23)C1 . Value?
Result: < 25%

Ask: Endpoint output: Emax of CCOC(=O)N1C2CCC1CC(N1CCC3(CC1)CN(C(=O)c1sc(C)nc1C)Cc1ccccc13)C2 (stereo not shown) . Value?
Result: 25 to 100%

Ask: Endpoint output: Emax of CCOC(=O)N1CCC(N2CCC3(CC2)CN(C(=O)C2CCCC2)Cc2ccccc23)CC1 . Value?
Result: < 25%
